The entries below come with measured Plant response rating, Barnyardgrass values attached.
# Tested on: barnyardgrass (Echinochloa crus-galli)
# ASSAY_NOTES: Test A preemergence
# Format: in vivo
# CONDITION_PARAMETERS: 125 g ai/ha, preemergence; 0 to 100 scale (0 no effect, 100 complete control)
The response must contain the number and no unit.

A selection of reference data follows.
MOLECULE	Plant response rating, Barnyardgrass
O=C1NCC(c2cccc(OC(F)(F)C(F)F)c2)C1C(=O)Nc1ccccc1C(F)F (centres unmarked)	80
Cc1ccc(C2CNC(=O)C2C(=O)Nc2cccc(F)c2F)cc1F (racemic)	90
Cc1cc(NC(=O)C2C(=O)NCC2c2ccc(F)c(F)c2)ccc1F (centres unmarked)	40

Would you kindly look at the next entry?
INPUT: Bench note: what Plant response rating, Barnyardgrass did Cc1cc(C2CN(C)C(=O)C2C(=O)Nc2ccc(F)cc2F)ccc1F (centres unmarked) show?
OUTPUT: 90

----------
# Tested on: velvetleaf (Abutilon theophrasti)
# ASSAY_NOTES: Test G Post-Emergence Protocol
# Format: in vivo
# CONDITION_PARAMETERS: Abutilon theophrasti, post-emergence, 312 h, 15.625 g ai/ha, evaluated after 13 days (100=total damage to plant; 0=no damage to plant), read-out: Velvetleaf damage rating
# Description: Seeds of corn (Zea mays), giant foxtail (Setaria faberi), barnyardgrass (Echinochloa crus-galli), ivy-leaved morning glory (Ipomoea hederacea), redroot pigweed (Amaranthus retroflexus) and velvetleaf (Abutilon theophrasti) were sown in standard soil in pots. […]
Listing: pest or weed control at 15.625 g/ha of selected molecules
Give your result in % as a bare value.

MOLECULE	UNIT_STRING	pest or weed control at 15.625 g/ha
CN1C[C@H](c2ccc(C(F)(F)F)cc2)[C@@H](C(=O)Nc2cccc(C(F)F)c2)C1=O (racemic)	%	0
COc1ccc(CNC(=O)[C@H]2C(=O)N(C)C[C@@H]2c2ccc(C(F)(F)F)cc2)c(OC)c1 (racemic)	%	0
COc1cc(C2CN(C)C(=O)C2C(=O)Nc2cccc(F)c2F)cc(OC)c1F (stereo not shown)	%	0

INPUT: Reported pest or weed control at 15.625 g/ha, molecule CN1C[C@H](c2cccc(C#N)c2)[C@@H](C(=O)Nc2ccccc2F)C1=O (racemic) : ____
OUTPUT: 10

----------
// reported pest or weed control at 62.5 g/ha per item
# Test system: redroot pigweed (Amaranthus retroflexus)
# ASSAY_NOTES: Test G Post-Emergence Protocol
# Assay type: in vivo
# CONDITION_PARAMETERS: Amaranthus retroflexus, post-emergence, 312 h, 62.5 g ai/ha, evaluated after 13 days, read-out: Pigweed, Redroot damage rating (100=total damage to plant; 0=no damage to plant)
Give the value, in units of %, as a plain number.

As a guide, the following entries are already answered.
COMPOUND	VALUE_OBSERVED
CN1C[C@H](c2ccc(C(F)(F)F)cc2)[C@@H](C(=O)Nc2ccc(Cl)cc2[N+](=O)[O-])C1=O (racemic)	0
CN1C[C@H](c2ccc(C(F)(F)F)cc2)[C@@H](C(=O)Nc2nccc(C(F)(F)F)c2F)C1=O (racemic)	0

INPUT: Any idea what its pest or weed control at 62.5 g/ha is? The compound is CN1C[C@H](c2ccc(C(F)(F)F)cc2)[C@@H](C(=O)Nc2ccc(F)cc2[N+](=O)[O-])C1=O (racemic)
OUTPUT: 30

INPUT: What value of pest or weed control at 62.5 g/ha has been reported for the following compound? CN1C[C@H](c2ccc3c(c2)OCCO3)[C@@H](C(=O)Nc2cccc(F)c2F)C1=O (racemic)
OUTPUT: 0

----------
Listing: Plant response rating, Barnyardgrass of selected compounds
# Test system: barnyardgrass (Echinochloa crus-galli)
# ASSAY_NOTES: Test A preemergence
# Assay type: in vivo
# CONDITION_PARAMETERS: 500 g ai/ha, preemergence; 0 to 100 scale, 0 = no effect, 100 = complete control
# Text: […]
Respond with the number and no other words.

Consider the reported Plant response rating, Barnyardgrass for these compounds:
COMPOUND	Plant response rating, Barnyardgrass
CN1CC(c2cc(F)cc(F)c2)C(C(=O)Nc2ccccc2C(F)(F)F)C1=O (stereo not shown) [Compound 647]	90
CN1CC(c2cccc(OC(F)F)c2)C(C(=O)Nc2ccccc2F)C1=O (stereo not shown) [Compound 618]	90
O=C1NCC(c2cccc(Br)c2)C1C(=O)Nc1cccc(F)c1F (racemic) [Compound 688]	90

INPUT: If you can, please state the reported Plant response rating, Barnyardgrass value of Cc1ccc(C2CNC(=O)C2C(=O)Nc2cccc(F)c2F)cc1C(F)(F)F (stereo not shown) [Compound 642] .
OUTPUT: 90

INPUT: What Plant response rating, Barnyardgrass value was documented for this compound, NS(=O)(=O)c1ccccc1NC(=O)C1C(=O)NCC1c1cccc(C(F)(F)F)c1 (stereo not shown) [Compound 634] ?
OUTPUT: 70

INPUT: Name the reported Plant response rating, Barnyardgrass value associated with the compound CN1CC(c2ccc(F)c(C(F)(F)F)c2)C(C(=O)Nc2cccc(F)c2F)C1=O (stereo not shown) [Compound 613]
OUTPUT: 90

INPUT: What measured Plant response rating, Barnyardgrass goes with CC(C)Oc1cccc(C2CN(C)C(=O)C2C(=O)Nc2ccccc2C(F)(F)F)c1 (stereo not shown) [Compound 652] ?
OUTPUT: 90

INPUT: Entry Cc1cccc(C2CN(C)C(=O)C2C(=O)Nc2cccc(F)c2F)c1 (stereo not shown) [Compound 667] has what Plant response rating, Barnyardgrass?
OUTPUT: 90

INPUT: Look at this compound and give its reported Plant response rating, Barnyardgrass. Cc1ccc(C2CNC(=O)C2C(=O)Nc2ccccc2F)cc1C(F)(F)F (racemic) [Compound 678]
OUTPUT: 90

INPUT: Return reported Plant response rating, Barnyardgrass; argument: CC(C)Oc1cccc(C2CN(C)C(=O)C2C(=O)Nc2ccccc2F)c1 (stereo not shown) [Compound 650]
OUTPUT: 100

----------
# Test system: barnyardgrass (Echinochloa crus-galli)
# ASSAY_NOTES: Test A preemergence
# Format: in vivo
# CONDITION_PARAMETERS: Echinochloa crus-galli, pre-emergence, 240 h, 500 g ai/ha, preemergence; visual injury rating about 10 d after treatment, 0 to 100 scale (0 no effect, 100 complete control); read-out: Barnyardgrass plant response rating
Reported pest or weed control at 500 g/ha values are given for each entry in this list.
The reply should be a number in %, with the unit left off.

Previously resolved entries follow.
MOLECULE	pest or weed control at 500 g/ha [%]
O=C1NC[C@H](c2cc(C(F)(F)F)cs2)[C@H]1C(=O)Nc1cccc(F)c1F [Compound 961]	90
O=C(Nc1ccccc1F)[C@H]1C(=O)N(C2CC2)CC[C@@H]1c1ccccc1 [Compound 1031]	0
O=C1NC[C@H](c2ccc3c(c2)OCO3)[C@H]1C(=O)Nc1ccc(F)cc1F [Compound 1026]	90

INPUT: I'd like to know its pest or weed control at 500 g/ha. The molecule in question is CN1C[C@H](c2ccc(C(F)(F)F)cc2)[C@@H](C(=O)Nc2ccc(F)cc2C(F)(F)F)C1=O [Compound 942]
OUTPUT: 90

INPUT: Recorded pest or weed control at 500 g/ha of CN1C[C@H](c2csc(C(F)F)c2)[C@@H](C(=O)Nc2ccccc2F)C1=O [Compound 1123] , please.
OUTPUT: 90

----------
Known Plant response rating, Foxtail, Giant of a selection of compounds
# Tested on: foxtail, giant (giant foxtail, Setaria faberii)
# ASSAY_NOTES: Test C preemergence
# Assay type: in vivo
# CONDITION_PARAMETERS: 125 g ai/ha, scale 0 to 100, 0 no effect, 100 complete control
Respond numerically, and do not add a unit to the figure.

See these solved cases before continuing.
COMPOUND	Plant response rating, Foxtail, Giant
CN1CC(c2cccc(C(F)(F)F)c2)C(C(=O)Nc2cccc(F)c2F)C1=O (stereo not drawn) [Compound 636]	90
CN1CC(c2ccc(C(F)(F)F)cc2)C(C(=O)Nc2ccccc2S(C)(=O)=O)C1=O (stereo not drawn) [Compound 624]	90

Now look at this entry.
INPUT: # lookup: Plant response rating, Foxtail, Giant of CN1CC(c2ccc(C(F)(F)F)c(F)c2)C(C(=O)Nc2ccccc2S(C)(=O)=O)C1=O (stereo not drawn) [Compound 397]
OUTPUT: 98

----------
# Test system: blackgrass (Alopecurus myosuroides)
# ASSAY_NOTES: Test A postemergence
# Format: in vivo
# CONDITION_PARAMETERS: Alopecurus myosuroides, post-emergence, 240 h, 125 g ai/ha, postemergence, visual injury rating after approximately 10 d; read-out: Blackgrass plant response rating (0 to 100 scale, 0 no effect, 100 complete control)
PROPERTY_MEASURED: pest or weed control at 125 g/ha
The reply should consist of the numeric value with the unit placed after it.

Examples with their reported pest or weed control at 125 g/ha follow.
COMPOUND	TARGET_ENTITY	pest or weed control at 125 g/ha
CCOc1ccc([C@H]2CNC(=O)[C@@H]2C(=O)Nc2ccc(F)cc2F)cc1	blackgrass (Alopecurus myosuroides)	0%
COc1cc([C@H]2CN(C)C(=O)[C@@H]2C(=O)Nc2cccc(F)c2F)cc(C(F)(F)F)c1	blackgrass (Alopecurus myosuroides)	60%
CC(C)c1cccc([C@H]2CN(C)C(=O)[C@@H]2C(=O)Nc2ccccc2F)c1	blackgrass (Alopecurus myosuroides)	60%
CN1CC(c2cccc(I)c2)C(C(=O)Nc2ccccc2F)C1=O (stereo not shown)	blackgrass (Alopecurus myosuroides)	50%
COc1cc(C(F)(F)F)ccc1[C@H]1CN(C)C(=O)[C@@H]1C(=O)Nc1ccccc1SC	blackgrass (Alopecurus myosuroides)	0%

INPUT: Need pest or weed control at 125 g/ha, item CSc1ccccc1NC(=O)[C@H]1C(=O)NC[C@@H]1c1cccc2c1OC(F)(F)O2
OUTPUT: 0%

INPUT: Need pest or weed control at 125 g/ha of Cc1c(F)cccc1NC(=O)[C@H]1C(=O)N(C)C[C@@H]1c1cccc(COC(F)F)c1 , thanks.
OUTPUT: 60%

INPUT: Recorded pest or weed control at 125 g/ha of Cc1cc(C)cc([C@H]2CNC(=O)[C@@H]2C(=O)Nc2cccc(F)c2F)c1 , please.
OUTPUT: 20%

INPUT: pest or weed control at 125 g/ha lookup needed for Cc1cc(F)cc([C@H]2CN(C)C(=O)[C@@H]2C(=O)Nc2ccccc2F)c1 , thanks.
OUTPUT: 0%

INPUT: Fill in: pest or weed control at 125 g/ha of COc1ccccc1NC(=O)[C@H]1C(=O)N(C)C[C@@H]1c1ccc(C(F)(F)F)cc1 is ___
OUTPUT: 0%
